conditions: 25.0 °C
Reported Metric: log10 OH rate constant (cm³/molecule/s)
Reply with just the number.

Study these solved cases before continuing.
c1cc2c3c(cccc3c1)CC2 : -10.2
C/C(C=O)=C\C=C\C=O : -9.93
ClCCCCl : -12.1
Clc1c(Cl)c(Cl)c2c(c1Cl)Oc1ccccc1O2 : -12.1
CCCCOCOCCCC : -10.5

Kindly review the next molecule as well.
Prompt: Which log10 OH rate constant (cm³/molecule/s) value belongs to O=C/C=C/C=C/C=O ?
Completion: -10

----------
compounds and their reported log10 OH rate constant (cm³/molecule/s)
conditions: 24.0 °C
Provide a numeric answer; units are not to be included.

Record excerpt, results attached:
Clc1cccc(-c2cccc(Cl)c2)c1 : -11.4
Clc1cc(Cl)cc(-c2ccccc2)c1 : -11.4
c1ccc2cnccc2c1 : -11.1
C[Si]1(C)O[Si](C)(C)O[Si](C)(C)O[Si](C)(C)O1 : -12
c1ccc2ncccc2c1 : -10.9

Prompt: Consider the compound shown here: c1ccc(Oc2ccccc2)cc1 What is its recorded log10 OH rate constant (cm³/molecule/s)?
Completion: -11

Prompt: Next compound up: Clc1ccccc1-c1ccccc1Cl
Completion: -11.7

Prompt: Please do the same for Clc1cccc2c1Oc1ccccc1O2 as well.
Completion: -11.3

Values were extracted from the OPERA property sets (Mansouri et al. 2018).
